# Test system: Mus musculus
# Procedure summary: Peripheral plasma levels in mice after oral administration of 50 mg/kg dose for 1 hr
# Assay type: functional, organism-based
# Design: dose 50 mg/kg
This listing pairs compounds with measured Concentration.

Smiles record	Unit string	Concentration
CC[C@H]1OC(=O)C[C@@H](O)[C@H](C)[C@@H](O[C@@H]2O[C@H](C)[C@@H](O[C@H]3C[C@@](C)(O)[C@@H](O)[C@H](C)O3)[C@H](N(C)C)[C@H]2O)[C@@H](CCN2C(=O)c3ccccc3C2=O)C[C@@H](C)C(=O)/C=C/C(C)=C/[C@@H]1CO[C@@H]1O[C@H](C)[C@@H](O)[C@@H](OC)[C@H]1OC	µg/mL	1.6
CC[C@H]1OC(=O)C[C@@H](O)[C@H](C)[C@@H](O[C@@H]2O[C@H](C)[C@@H](O[C@H]3C[C@@](C)(O)[C@@H](O)[C@H](C)O3)[C@H](N(C)C)[C@H]2O)[C@@H](CCOc2ccccc2)C[C@@H](C)C(=O)/C=C/C(C)=C/[C@@H]1CO[C@@H]1O[C@H](C)[C@@H](O)[C@@H](OC)[C@H]1OC	µg/mL	2.3
CC[C@H]1OC(=O)C[C@@H](O)[C@H](C)[C@@H](O[C@@H]2O[C@H](C)[C@@H](O)[C@H](N(C)C)[C@H]2O)[C@@H](CCOc2ccc(C(=O)c3ccccc3)cc2)C[C@@H](C)C(=O)/C=C/C(C)=C/[C@@H]1CO[C@@H]1O[C@H](C)[C@@H](O)[C@@H](OC)[C@H]1OC	µg/mL	0.1
CC[C@H]1C[C@@H](C)C(=O)/C=C/C(C)=C/[C@H](CO[C@@H]2O[C@H](C)[C@@H](O)[C@@H](OC)[C@H]2OC)[C@@H](CC)OC(=O)C[C@@H](O)[C@H](C)[C@H]1O[C@@H]1O[C@H](C)[C@@H](O)[C@H](N(C)C)[C@H]1O	µg/mL	2
CC[C@H]1OC(=O)C[C@@H](O)[C@H](C)[C@@H](O[C@@H]2O[C@H](C)[C@@H](O[C@H]3C[C@@](C)(O)[C@@H](O)[C@H](C)O3)[C@H](N(C)C)[C@H]2O)[C@@H](CCCl)C[C@@H](C)C(=O)/C=C/C(C)=C/[C@@H]1CO[C@@H]1O[C@H](C)[C@@H](O)[C@@H](OC)[C@H]1OC	µg/mL	0.9
CC[C@H]1OC(=O)C[C@@H](O)[C@H](C)[C@@H](O[C@@H]2O[C@H](C)[C@@H](O)[C@H](N(C)C)[C@H]2O)[C@@H](CCN2C(=O)c3ccccc3C2=O)C[C@@H](C)C(=O)/C=C/C(C)=C/[C@@H]1CO[C@@H]1O[C@H](C)[C@@H](O)[C@@H](OC)[C@H]1OC	µg/mL	0.8
CC[C@H]1OC(=O)C[C@@H](O)[C@H](C)[C@@H](O[C@@H]2O[C@H](C)[C@@H](O)[C@H](N(C)C)[C@H]2O)[C@@H](CCF)C[C@@H](C)C(=O)/C=C/C(C)=C/[C@@H]1CO[C@@H]1O[C@H](C)[C@@H](O)[C@@H](OC)[C@H]1OC	µg/mL	0.2
CC[C@H]1OC(=O)C[C@@H](O)[C@H](C)[C@@H](O[C@@H]2O[C@H](C)[C@@H](O)[C@H](N(C)C)[C@H]2O)[C@@H](CCOc2ccccc2)C[C@@H](C)C(=O)/C=C/C(C)=C/[C@@H]1CO[C@@H]1O[C@H](C)[C@@H](O)[C@@H](OC)[C@H]1OC	µg/mL	2.4
CC[C@H]1OC(=O)C[C@@H](O)[C@H](C)[C@@H](O[C@@H]2O[C@H](C)[C@@H](O)[C@H](N(C)C)[C@H]2O)[C@@H](CCCl)C[C@@H](C)C(=O)/C=C/C(C)=C/[C@@H]1CO[C@@H]1O[C@H](C)[C@@H](O)[C@@H](OC)[C@H]1OC	µg/mL	0.3

Measured values drawn from ChEMBL document CHEMBL1124186 for this set.
